System: HERV-K protease
Construct: gene pro; retroviral aspartic protease of consensus HERV-K genome (from Gag-Pro-Pol polyprotein; synthetic, plasmid pCD-HK/Rev), acting in transfected HeLa or 293 cells and virions; homodimer by homology
Experiment: virus production in transfected HeLa cells, RT activity in supernatant by PERT
Assay type: cell-based
Conditions: Homo sapiens, read-out: HERV-K IC50 (μM)
Examples of compounds with documented IC50 follow.
The number alone won't do; follow it with the unit.

// lookup IC50 | system=HERV-K protease | key= CC(C)CN(C[C@@H](O)[C@H](Cc1ccccc1)NC(=O)O[C@H]1CO[C@H]2OCC[C@H]21)S(=O)(=O)c1ccc(N)cc1 [Darunavir] 0.029 µM

# next compound below
// lookup IC50 | system=HERV-K protease | key= Cc1cccc(C)c1OCC(=O)N[C@@H](Cc1ccccc1)[C@@H](O)C[C@H](Cc1ccccc1)NC(=O)[C@H](C(C)C)N1CCCNC1=O [Lopinavir] 0.034 µM
